- Tested on: plus strand HCV RNA
- Assay type: biochemical, Hepatitis C virus
- ASSAY_SETUP: plus strand (+) HCV site, 50 mM Tris-Cl, pH 8.0, 40 mM Mg2+ at 37°, trace substrate, enzymatic nucleic acid concentration of 500 nM or greater
[invAb] = 3' inverted deoxyabasic cap; m = 2'-O-methyl; r = 2'-OH (RNA)
METRIC: % Substrate Cleaved in 3 hours (%)
Give a bare numeral; the unit % is implied.

SUBSTANCE | % Substrate Cleaved in 3 hours (%)
22723 (ACAGGUUUGAUGGCAUGCACUAUGCGCGAACUCGU; sugars from the 5' end mmmmmmmmrrrmmmmmrmmmmmmmmmrmmmmmmmm, [invAb] at 3' end, backbone not given here) [compound 22723] | 61.58
22946 (CUCCACGCUGAUGAGGCCGUUAGGCCGAAACUCCUC; 2'-O-methyl at 1, 2, 3, 4, 5, 6, 7, 15, 16, 17, 18, 19, 20, 21, 22, 23, 24, 25, 26, 31, 32, 33, 34, 35, 36, [invAb] at 3' end, other sugars and backbone not given here) [compound 22946] | 78.06
22722 (ACCACCUUGAUGGCAUGCACUAUGCGCGACUCCAC; sugars from the 5' end mmmmmmmmrrrmmmmmrmmmmmmmmmrmmmmmmmm, [invAb] at 3' end, backbone not given here) [compound 22722] | 75.84

Tell us which % Substrate Cleaved in 3 hours value is on record for 22720 (GGAGAGGUGAUGGCAUGCACUAUGCGCGAUAUACA; sugars from the 5' end mmmmmmmmrrrmmmmmrmmmmmmmmmrmmmmmmmm, [invAb] at 3' end, backbone not given here) [compound 22720]
77.74

Tell us which % Substrate Cleaved in 3 hours value is on record for 22972 (UGAGAGAGGCTAGCTACAACGAGAGGAAGN; 3' inverted abasic cap (B); Description of Artificial Sequence: Nucleic Acid; misc_feature (30)..(30): "n" is an inverted deoxyabasic moiety; misc_feature (1)..(7): 2'-O-Methyl; misc_feature (23)..(29): 2'-O-Methyl) [compound 22972]
86.38

----------
- System: minus strand HCV RNA
- Format: biochemical, Hepatitis C virus
- ASSAY_SETUP: minus strand (−) HCV site, 50 mM Tris-Cl, pH 8.0, 40 mM Mg2+ at 37°, trace substrate, enzymatic nucleic acid concentration of 500 nM or greater
[2NH2-N] = 2'-deoxy-2'-amino ribonucleotide (N: the base); [invAb] = 3' inverted deoxyabasic cap; [I] = hypoxanthine (inosine)
METRIC: % Substrate Cleaved in 3 hours (%)
Give a bare numeral; the unit % is implied.

The examples below pair each entry with its known result.
SUBSTANCE | MEASUREMENT_UNIT | NUMERIC_VALUE
22754 (AGGAGUAGCCGAAAGGCGAGUGAGGUCUGUGGAGG; 2'-O-methyl at 1, 2, 3, 4, 5, 6, 7, 8, 9, 10, 11, 12, 13, 14, 15, 16, [2NH2-N] at 17, 27, [invAb] at 3' end, other sugars and backbone not given here) [compound 22754] | % | 50.40
22784 (UGGAUGACUGAUGAGGCCGUUAGGCCGAANCUGUUG; 2'-O-methyl at 1, 2, 3, 4, 5, 6, 7, 15, 16, 17, 18, 19, 20, 21, 22, 23, 24, 25, 26, 31, 32, 33, 34, 35, 36, [I] at 30, [invAb] at 3' end, other sugars and backbone not given here) [compound 22784] | % | 90.41

--- query ---
Tell us which % Substrate Cleaved in 3 hours value is on record for 22952 (GACUGGACUGAUGAGGCCGUUAGGCCGAAAUGCACG; 2'-O-methyl at 1, 2, 3, 4, 5, 6, 7, 15, 16, 17, 18, 19, 20, 21, 22, 23, 24, 25, 26, 31, 32, 33, 34, 35, 36, [invAb] at 3' end, other sugars and backbone not given here) [compound 22952]
86.96
